# Tested on: A673/TR/shEF
# testSummary: cell viability (LOESS-normalised, relative to median of negative controls) (log2 ratio); higher = more viable cells (less compound effect), active = hit call of the paper (over 3 MAD below the median)
# conditionSummary: 0.25 µM; library screen: screen1; EWS-FLI1 expression: high (no doxycycline); treatment time: 72 h
Among all 3,200 compounds or so, about 300 (9.4%) showed activity. The entries come from a sample that favours actives as a whole.
endpoint: cell viability (log2)
Reply with the value as a number alone.

Would you please look over these solved cases?
compound: COc1cc2c(cc1O)C(Cc1ccc(O)cc1)N(C)CC2 (centres undefined)
endpoint: cell viability (log2)
reported: 0.127

compound: COc1ccc2c(c1)[C@@]1(C)CCC(=O)C[C@@H]1CC2
endpoint: cell viability (log2)
reported: 0.0574

compound: Cn1cnnc1SCC(=O)N1c2ccccc2C(C)(c2ccccc2)CC1(C)C (centres undefined)
endpoint: cell viability (log2)
reported: 0.078

compound: COc1cc(OC)c(C2NC(=S)NC(C)=C2C(=O)Nc2ccccc2Cl)cc1OC (centres undefined)
endpoint: cell viability (log2)
reported: 0.0713

compound: CC(=O)O[C@@H]1CC2C(C)(C)[C@@H](O)CC[C@]2(C)C2CC[C@@]3(C)[C@H](c4ccoc4)OC(=O)[C@H]4O[C@]43[C@@]21C (some centres undefined)
endpoint: cell viability (log2)
reported: 0.0735

Name the recorded cell viability (log2) of the item `C/C(=C\CO)CCC[C@H](C)CCC[C@H](C)CCCC(C)C` in your answer. 0.0657

Name the recorded cell viability (log2) of the item C[C@H](CCC(=O)O)[C@H]1CC[C@H]2[C@@H]3C(O)CC4=CC(=O)CC[C@]4(C)[C@H]3CC[C@]12C (some centres undefined) in your answer. 0.0418

Name the recorded cell viability (log2) of the item `C=CC(=O)c1ccc2ccccc2c1` in your answer. 0.286

Name the recorded cell viability (log2) of the item `O=C(NCc1ccco1)/C(=C\c1ccco1)NC(=O)c1cccs1` in your answer. 0.0268

Name the recorded cell viability (log2) of the item `Cc1nc2ccc(NC(=S)N3CCCC3)cc2nc1C` in your answer. -0.0193

Name the recorded cell viability (log2) of the item `O=C1O[C@H]([C@@H](O)CO)C([O-])=C1[O-].[Ca+2]` in your answer. 0.0808

Name the recorded cell viability (log2) of the item `N#C/C(=C\c1ccc(O)c(O)c1)C(=O)Nc1ccccc1` in your answer. 0.155

Name the recorded cell viability (log2) of the item `CCOC(=O)c1c[nH]c2c(C)cccc2c1=O` in your answer. 0.111

Name the recorded cell viability (log2) of the item `CC(C)c1cc(/C=C(\C#N)C(=O)NCCCc2ccccc2)cc(C(C)C)c1O` in your answer. 0.255

Name the recorded cell viability (log2) of the item COC(=O)C[C@H]1C(C)(C)C(=O)[C@@H]2CC3=C4CC(OC)O[C@@H](c5ccoc5)[C@]4(C)CCC3[C@@]1(C)C2=O (some centres undefined) in your answer. 0.115

Name the recorded cell viability (log2) of the item `C=CCNc1nc2ccccn2c(=O)c1/C=C1\SC(=S)N(CCc2ccccc2)C1=O` in your answer. 0.071

Name the recorded cell viability (log2) of the item `CC(=O)O[C@]1(C(=O)CO)[C@H](C)C[C@H]2[C@@H]3CCC4=CC(=O)C=C[C@]4(C)[C@@]3(F)[C@@H](O)C[C@@]21C` in your answer. 0.0305

Name the recorded cell viability (log2) of the item `CC[C@H]1OC(=O)[C@H](C)[C@@H](O[C@H]2C[C@@](C)(OC)[C@@H](O)[C@H](C)O2)[C@H](C)[C@@H](O[C@@H]2O[C@H](C)C[C@H](N(C)C)[C@H]2O)[C@](C)(O)C[C@@H](C)[C@@H]2N[C@@H](COCCOC)OC([C@H]2C)[C@]1(C)O` in your answer. 0.163

Name the recorded cell viability (log2) of the item `O=C(O)c1cc([N+](=O)[O-])ccc1NCCCc1ccccc1` in your answer. 0.00351
